- experimental target: T1, MutS (Escherichia coli, UniProt P23909 1-853)
- T1 sequence: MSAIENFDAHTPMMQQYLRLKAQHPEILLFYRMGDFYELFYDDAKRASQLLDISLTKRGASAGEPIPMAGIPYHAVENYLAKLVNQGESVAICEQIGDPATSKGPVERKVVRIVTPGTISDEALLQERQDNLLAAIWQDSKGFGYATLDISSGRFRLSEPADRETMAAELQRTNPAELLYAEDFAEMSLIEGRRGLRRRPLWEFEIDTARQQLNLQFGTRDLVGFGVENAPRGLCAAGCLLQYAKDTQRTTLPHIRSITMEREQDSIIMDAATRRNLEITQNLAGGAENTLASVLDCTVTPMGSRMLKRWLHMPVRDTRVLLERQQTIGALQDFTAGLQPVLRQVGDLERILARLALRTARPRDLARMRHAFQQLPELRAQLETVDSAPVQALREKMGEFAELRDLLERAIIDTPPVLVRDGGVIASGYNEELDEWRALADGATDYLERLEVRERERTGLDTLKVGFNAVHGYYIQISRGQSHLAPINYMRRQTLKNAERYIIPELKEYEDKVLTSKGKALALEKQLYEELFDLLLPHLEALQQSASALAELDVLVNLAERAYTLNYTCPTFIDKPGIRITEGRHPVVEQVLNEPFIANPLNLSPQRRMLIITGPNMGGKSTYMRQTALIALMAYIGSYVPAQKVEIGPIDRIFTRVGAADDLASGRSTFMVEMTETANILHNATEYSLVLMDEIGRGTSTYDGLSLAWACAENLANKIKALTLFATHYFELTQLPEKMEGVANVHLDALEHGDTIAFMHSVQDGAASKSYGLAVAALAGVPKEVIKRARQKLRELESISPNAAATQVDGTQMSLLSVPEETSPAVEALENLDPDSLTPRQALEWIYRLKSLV
- assay notes: FRET equilibrium titration
Parameter: pKd. Scope: all listed entries.
Note on units: pKd is unitless, being -log10 of a concentration expressed in mol/L.

Illustrative cases are given below, each with its answer.
{"binder": "30-AA (dsDNA) DNA 1: AACTGCCAAGCACCAGTGTCAGCGTCGTAT DNA 2: ATACGACGCTGACACTGGTGCATGGCAGTT", "pKd": 6.97}
{"binder": "30-2ΔT (dsDNA) DNA 1: AACTGCCAGGCACCAGTGTCAGCGTCGTAT DNA 2: ATACGACGCTGACACTGGTGCCTTTGGCAGTT", "pKd": 7.13}
{"binder": "30-CT (dsDNA) DNA 1: AACTGCCACGCACCAGTGTCAGCGTCGTAT DNA 2: ATACGACGCTGACACTGGTGCTTGGCAGTT", "pKd": 6.48}
{"binder": "30-TG (dsDNA) DNA 1: AACTGCCATGCACCAGTGTCAGCGTCGTAT DNA 2: ATACGACGCTGACACTGGTGCGTGGCAGTT", "pKd": 7.15}

Which pKd is listed for 30-AC (dsDNA) DNA 1: AACTGCCAAGCACCAGTGTCAGCGTCGTAT DNA 2: ATACGACGCTGACACTGGTGCCTGGCAGTT ? 7.01
